Recorded values, source the supplement of paper PMC6757056.

Please go through the items and note down their normalized RNA/DNA level without ligand (log10).
B1: library; a variant is named by its letters at N, in order (parent)
chain: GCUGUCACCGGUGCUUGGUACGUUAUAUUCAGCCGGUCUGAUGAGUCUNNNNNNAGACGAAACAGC

Variants of: B1
Experiment: normalized RNA/DNA level without ligand (relative to sTRSVctl = 100) (log10 (% of sTRSVctl)); HEK293T overexpressing SLC46A1; higher = less ribozyme self-cleavage, higher mRNA level
Settings: without (6R,S)-folinic acid; ligand present: no

Give recorded normalized RNA/DNA level without ligand (log10). UGCACC
2.04

For the variant AAAUAU , give its measured normalized RNA/DNA level without ligand (log10) value.
1.95

Consider the variant ACACUG . State its measured normalized RNA/DNA level without ligand (log10).
1.97

Hello, please tell me recorded normalized RNA/DNA level without ligand (log10) for this one: CUUGAA
1.96

Specify normalized RNA/DNA level without ligand (log10) for UAGAGG and stop.
1.56

Could you please provide reported normalized RNA/DNA level without ligand (log10) for UUUUUU ? Thanks!
2.02

Identify measured normalized RNA/DNA level without ligand (log10) associated with GAUCUU
2.03

Given the variant GCGGUU , write its reported normalized RNA/DNA level without ligand (log10).
2.07

Name the recorded normalized RNA/DNA level without ligand (log10) of the variant listed here: UACUUU
2

Find the measured normalized RNA/DNA level without ligand (log10) of GUGAAU and report it.
1.94

Quick one: give measured normalized RNA/DNA level without ligand (log10) for GAUGAC
1.95

Quote normalized RNA/DNA level without ligand (log10) reported for UACACC please.
2.02

State its normalized RNA/DNA level without ligand (log10) for this variant: UAAGUG
1.67

Return normalized RNA/DNA level without ligand (log10) for the following variant: AUAGCA
1.98

Using the record for AUGGAC , state its measured normalized RNA/DNA level without ligand (log10).
1.96

Look up and state reported normalized RNA/DNA level without ligand (log10) for UGGUGG
1.74

Tell us which normalized RNA/DNA level without ligand (log10) value is on record for ACUCGG
1.98

Consider the variant CUUAGU . State its measured normalized RNA/DNA level without ligand (log10).
2.01

Check the records and state normalized RNA/DNA level without ligand (log10) for AACCCG
1.99

Specify measured normalized RNA/DNA level without ligand (log10) for CCUCGU .
2.01

Indicate its recorded normalized RNA/DNA level without ligand (log10); the variant in question is GACCUA
2.05

Give normalized RNA/DNA level without ligand (log10) for UUAAAA
1.93

Please list normalized RNA/DNA level without ligand (log10) recorded for the variant UGGUCC
2.04

Report measured normalized RNA/DNA level without ligand (log10); entry is CUUUCA
1.99

Let me know recorded normalized RNA/DNA level without ligand (log10) for ACCCGA , thanks.
2.02

Provide only the value of recorded normalized RNA/DNA level without ligand (log10) for UCUGAA
1.91

Return the recorded normalized RNA/DNA level without ligand (log10) value; entry: GCGUUU
2.04

Identify measured normalized RNA/DNA level without ligand (log10) associated with CCGCUC
2.11

Read the entry GUAGAA and write its reported normalized RNA/DNA level without ligand (log10).
1.95

Tell us which normalized RNA/DNA level without ligand (log10) value is on record for UUUUAU
2.01

Give the reported value of normalized RNA/DNA level without ligand (log10) for this record: CCAAGA
2.01

Tell me its normalized RNA/DNA level without ligand (log10) given UCAUGA as the entry.
2.01

State its normalized RNA/DNA level without ligand (log10) for this variant: AGGAAA
1.94

Dear colleague, please send me the reported normalized RNA/DNA level without ligand (log10) for CUUUCC when you can.
2.02

Report normalized RNA/DNA level without ligand (log10) for AUAACU
2.01

Determine its reported normalized RNA/DNA level without ligand (log10): GAAUGG
1.89

Report measured normalized RNA/DNA level without ligand (log10); entry is AGGUGC
2

Output normalized RNA/DNA level without ligand (log10) of GACAAC
1.99

Identify normalized RNA/DNA level without ligand (log10) associated with the variant CGGUCC
2.07

Output measured normalized RNA/DNA level without ligand (log10) for this item: UCCCGA
2.03

Consider the variant CGCACC and give its recorded normalized RNA/DNA level without ligand (log10).
2.08

Using the record for GUACUC , state its measured normalized RNA/DNA level without ligand (log10).
2.05

Give normalized RNA/DNA level without ligand (log10) for the following variant: UAGAUC
2.05

Tell me measured normalized RNA/DNA level without ligand (log10) for AGACAC please.
2.02

Please give the documented normalized RNA/DNA level without ligand (log10) of AAUAAC
1.98

Fill in reported normalized RNA/DNA level without ligand (log10) for this entry: GACAGA
1.99

Provide normalized RNA/DNA level without ligand (log10) value for the following variant: UUGAUG
1.8

Provide one value: measured normalized RNA/DNA level without ligand (log10) of CACGUU
2.01

Using known records, supply normalized RNA/DNA level without ligand (log10) for CCCAUA
2.02

Tell me measured normalized RNA/DNA level without ligand (log10) for CCGUGU please.
2.04

Specify measured normalized RNA/DNA level without ligand (log10) for AAAUAA .
1.94

Give reported normalized RNA/DNA level without ligand (log10) value for CGUUGC
2.02

Give normalized RNA/DNA level without ligand (log10) for UUAGGA
1.88

Supply reported normalized RNA/DNA level without ligand (log10) belonging to this variant: CGCGAA
1.98

Consider the variant GGUAGC . State its measured normalized RNA/DNA level without ligand (log10).
1.92

Determine its reported normalized RNA/DNA level without ligand (log10): GGAUGU
1.97

Look up normalized RNA/DNA level without ligand (log10) of GCAAUG and report it.
1.98

Please indicate normalized RNA/DNA level without ligand (log10) recorded for UGAUCC
2.06

Please indicate normalized RNA/DNA level without ligand (log10) recorded for UGCUCA
1.98

Identify the reported normalized RNA/DNA level without ligand (log10) for the following entry. ACUGUU
2

Output normalized RNA/DNA level without ligand (log10) of ACCCCA
2.02

Provide measured normalized RNA/DNA level without ligand (log10) value, entry: UCAGGG
1.81

Give normalized RNA/DNA level without ligand (log10) for the following variant: CUGGGG
1.87

Respond only with normalized RNA/DNA level without ligand (log10) recorded for UAAAGU
1.89

Quote normalized RNA/DNA level without ligand (log10) reported for CAGGCC please.
2.06

Quickly give me recorded normalized RNA/DNA level without ligand (log10) for ACGCAU
1.99

Check the records and state normalized RNA/DNA level without ligand (log10) for ACUUAA
1.97

Output measured normalized RNA/DNA level without ligand (log10) for this item: AAGAUU
2.01

Indicate the recorded normalized RNA/DNA level without ligand (log10) value for this variant: AGCCAA
1.99

Give the value of normalized RNA/DNA level without ligand (log10) reported for the following: CCAGAC
1.99

Using the record for CGCUUG , state its measured normalized RNA/DNA level without ligand (log10).
2.07

State its normalized RNA/DNA level without ligand (log10) for this variant: GAGUAU
1.98

Respond only with normalized RNA/DNA level without ligand (log10) recorded for AUUCUG
1.94

Look up and report measured normalized RNA/DNA level without ligand (log10) for this entry: UCGAGC
2.02

For the variant AUACUG , give its measured normalized RNA/DNA level without ligand (log10) value.
1.94

# return recorded normalized RNA/DNA level without ligand (log10) for entry ACCGUA
1.97

Return normalized RNA/DNA level without ligand (log10) (reported value) for this variant: CAAUAA
1.93

For the variant AAGUGU , give its reported normalized RNA/DNA level without ligand (log10).
1.94
